- protocolSummary: organ distribution of DXR after administration free or in liposomes
- Type: in vivo
- assayConditions: spleen; 24 hrs; read-out: DXR level in Spleen
readoutType: concentration at 24 h (ng/g)
# value in ng/g; strip the unit string

Task: Entry `COc1cccc2c1C(=O)c1c(O)c3c(c(O)c1C2=O)C[C@@](O)(C(=O)CO)C[C@@H]3O[C@H]1C[C@H](N)[C@H](O)[C@H](C)O1` : reported concentration at 24 h = ?
Result: 8800

----------
- protocolSummary: organ distribution of DXR after administration free or in liposomes
- Format: in vivo
- assayConditions: heart; 5 hrs; read-out: DXR level in Heart
readoutType: concentration at 5 h (ng/g)
Quick reminder: number only, in ng/g, skip the unit.

Task: Could you share which concentration at 5 h value was measured for `COc1cccc2c1C(=O)c1c(O)c3c(c(O)c1C2=O)C[C@@](O)(C(=O)CO)C[C@@H]3O[C@H]1C[C@H](N)[C@H](O)[C@H](C)O1` ?
Result: 4200

All figures here come from patent US5043166A.
